Assay: Equilibrium solubility of compound at pH 7.4 incubated for 24 to 48 hrs by HPLC analysis
Type: physicochemical
Details: buffer, time 24-48 hrs
RECORDED_METRIC: solubility thermodynamic (µg/mL)
The response must be a number in µg/mL with no trailing unit.

COC(=O)N[C@H](C(=O)N1CCC[C@H]1c1nc2cc(F)c([C@H]3CC[C@H](c4cc5nc([C@@H]6CCCN6C(=O)[C@@H](NC(=O)OC)[C@@H](C)OC)n(COC(=O)Cc6ccc(OP(=O)(O)O)cc6)c5cc4F)N3c3cc(F)c(N4CCC(c5ccc(F)cc5)CC4)c(F)c3)cc2[nH]1)[C@@H](C)OC | 135

// next entry
Request: Name the reported solubility thermodynamic value associated with the compound `COC(=O)N[C@H](C(=O)N1CCC[C@H]1c1nc2cc(F)c([C@H]3CC[C@H](c4cc5nc([C@@H]6CCCN6C(=O)[C@@H](NC(=O)OC)[C@@H](C)OC)n(COC(=O)[C@@H](NC(=O)COP(=O)(O)O)C(C)C)c5cc4F)N3c3cc(F)c(N4CCC(c5ccc(F)cc5)CC4)c(F)c3)cc2[nH]1)[C@@H](C)OC`
Result: 0.7

---

Assay: Apparent permeability in MDCK cells
Type: ADME, cell-based, Canis lupus familiaris
Settings: dog
RECORDED_METRIC: Papp (×10⁻⁶ cm/s)
The response must be a number in ×10⁻⁶ cm/s with no trailing unit.

Request: Name the reported Papp value associated with the compound CC(C)(C)[C@@H]1NC(=O)O[C@@H]2CCC[C@H]2OC/C=C/C(F)(F)c2nc3ccccc3nc2O[C@@H]2C[C@@H](C(=O)N[C@]3(C(=O)NS(=O)(=O)C4(C)CC4)C[C@H]3C(F)F)N(C2)C1=O [GLECAPREVIR]
Result: 1.4

---

Assay: Cmax in beagle dog assessed as pibrentasvir1 level at 40 mg, po measured up to 24 hrs
Format: ADME, organism-based, Canis lupus familiaris
Design: route oral, dose 40 mg, time <=24
Settings: in vivo
# maps each entry to its log10(Cmax)
On a log10 scale: recorded Cmax, unit ng/mL.

Before answering, review these 3 worked examples.
COC(=O)N[C@H](C(=O)N1CCC[C@H]1c1nc2cc(F)c([C@H]3CC[C@H](c4cc5nc([C@@H]6CCCN6C(=O)[C@@H](NC(=O)OC)[C@@H](C)OC)n(C(=O)OCCCOP(=O)(O)O)c5cc4F)N3c3cc(F)c(N4CCC(c5ccc(F)cc5)CC4)c(F)c3)cc2[nH]1)[C@@H](C)OC | 2.29
COC(=O)N[C@H](C(=O)N1CCC[C@H]1c1nc2cc(F)c([C@H]3CC[C@H](c4cc5nc([C@@H]6CCCN6C(=O)[C@@H](NC(=O)OC)[C@@H](C)OC)n(COC(=O)[C@@H](N)C(C)C)c5cc4F)N3c3cc(F)c(N4CCC(c5ccc(F)cc5)CC4)c(F)c3)cc2[nH]1)[C@@H](C)OC | 2.58
COC(=O)N[C@H](C(=O)N1CCC[C@H]1c1nc2cc(F)c([C@H]3CC[C@H](c4cc5nc([C@@H]6CCCN6C(=O)[C@@H](NC(=O)OC)[C@@H](C)OC)n(COP(=O)(O)O)c5cc4F)N3c3cc(F)c(N4CCC(c5ccc(F)cc5)CC4)c(F)c3)cc2[nH]1)[C@@H](C)OC | 1.74

Request: Name the reported log10(Cmax) value associated with the compound `COC(=O)N[C@H](C(=O)N1CCC[C@H]1c1nc2cc(F)c([C@H]3CC[C@H](c4cc5nc([C@@H]6CCCN6C(=O)[C@@H](NC(=O)OC)[C@@H](C)OC)n(COC(=O)N(C)c6ncccc6COP(=O)(O)O)c5cc4F)N3c3cc(F)c(N4CCC(c5ccc(F)cc5)CC4)c(F)c3)cc2[nH]1)[C@@H](C)OC`
Result: 2.47

Request: Name the reported log10(Cmax) value associated with the compound `COC(=O)N[C@H](C(=O)N1CCC[C@H]1c1nc2cc(F)c([C@H]3CC[C@H](c4cc5nc([C@@H]6CCCN6C(=O)[C@@H](NC(=O)OC)[C@@H](C)OC)n(COC(=O)[C@@H](NC(=O)OCOP(=O)(O)O)C(C)C)c5cc4F)N3c3cc(F)c(N4CCC(c5ccc(F)cc5)CC4)c(F)c3)cc2[nH]1)[C@@H](C)OC`
Result: 1.20

Request: Name the reported log10(Cmax) value associated with the compound `COC(=O)N[C@H](C(=O)N1CCC[C@H]1c1nc2cc(F)c([C@H]3CC[C@H](c4cc5nc([C@@H]6CCCN6C(=O)[C@@H](NC(=O)OC)[C@@H](C)OC)n(COC(=O)c6ccccc6COP(=O)(O)O)c5cc4F)N3c3cc(F)c(N4CCC(c5ccc(F)cc5)CC4)c(F)c3)cc2[nH]1)[C@@H](C)OC`
Result: 2.06

Request: Name the reported log10(Cmax) value associated with the compound COC(=O)N[C@H](C(=O)N1CCC[C@H]1c1nc2cc([C@H]3CC[C@H](c4cc5nc([C@@H]6CCCN6C(=O)[C@@H](NC(=O)OC)[C@@H](C)OC)[nH]c5cc4F)N3c3cc(F)c(N4CCC(c5ccc(F)cc5)CC4)c(F)c3)c(F)cc2[nH]1)[C@@H](C)OC [PIBRENTASVIR]
Result: 2.53

---

Test: AUC in beagle dog assessed as pibrentasvir1 level at 40 mg, po measured up to 24 hrs
Type: ADME, organism-based, Canis lupus familiaris
Parameters: route oral, dose 40 mg, time <=24
Conditions: in vivo
RECORDED_METRIC: AUC (ng·h/mL)
The response must be a number in ng·h/mL with no trailing unit.

Before answering, review these 2 worked examples.
COC(=O)N[C@H](C(=O)N1CCC[C@H]1c1nc2cc(F)c([C@H]3CC[C@H](c4cc5nc([C@@H]6CCCN6C(=O)[C@@H](NC(=O)OC)[C@@H](C)OC)n(COC(=O)[C@@H](N)C(C)C)c5cc4F)N3c3cc(F)c(N4CCC(c5ccc(F)cc5)CC4)c(F)c3)cc2[nH]1)[C@@H](C)OC | 3940
COC(=O)N[C@H](C(=O)N1CCC[C@H]1c1nc2cc(F)c([C@H]3CC[C@H](c4cc5nc([C@@H]6CCCN6C(=O)[C@@H](NC(=O)OC)[C@@H](C)OC)n(COC(=O)Cc6ccc(OP(=O)(O)O)cc6)c5cc4F)N3c3cc(F)c(N4CCC(c5ccc(F)cc5)CC4)c(F)c3)cc2[nH]1)[C@@H](C)OC | 1920

// next entry
Request: Name the reported AUC value associated with the molecule `COC(=O)N[C@H](C(=O)N1CCC[C@H]1c1nc2cc(F)c([C@H]3CC[C@H](c4cc5nc([C@@H]6CCCN6C(=O)[C@@H](NC(=O)OC)[C@@H](C)OC)n(COC(=O)CC(C)(C)c6c(C)cc(C)cc6OP(=O)(O)O)c5cc4F)N3c3cc(F)c(N4CCC(c5ccc(F)cc5)CC4)c(F)c3)cc2[nH]1)[C@@H](C)OC`
Result: 3210

---

# maps each entry to its solubility thermodynamic
Assay: Equilibrium solubility of compound at pH 1 incubated for 24 to 48 hrs by HPLC analysis
Type: physicochemical
Conditions: buffer, time 24-48 hrs
The response must be a number in mg/mL with no trailing unit.

Before answering, review these 2 worked examples.
COC(=O)N[C@H](C(=O)N1CCC[C@H]1c1nc2cc(F)c([C@H]3CC[C@H](c4cc5nc([C@@H]6CCCN6C(=O)[C@@H](NC(=O)OC)[C@@H](C)OC)n(COC(=O)c6ccccc6COP(=O)(O)O)c5cc4F)N3c3cc(F)c(N4CCC(c5ccc(F)cc5)CC4)c(F)c3)cc2[nH]1)[C@@H](C)OC | 0.099
COC(=O)N[C@H](C(=O)N1CCC[C@H]1c1nc2cc(F)c([C@H]3CC[C@H](c4cc5nc([C@@H]6CCCN6C(=O)[C@@H](NC(=O)OC)[C@@H](C)OC)n(COC(=O)c6cccc(OP(=O)(O)O)c6)c5cc4F)N3c3cc(F)c(N4CCC(c5ccc(F)cc5)CC4)c(F)c3)cc2[nH]1)[C@@H](C)OC | 0.397

// next entry
Request: Name the reported solubility thermodynamic value associated with the molecule `COC(=O)N[C@H](C(=O)N1CCC[C@H]1c1nc2cc(F)c([C@H]3CC[C@H](c4cc5nc([C@@H]6CCCN6C(=O)[C@@H](NC(=O)OC)[C@@H](C)OC)n(C(=O)OCCCOP(=O)(O)O)c5cc4F)N3c3cc(F)c(N4CCC(c5ccc(F)cc5)CC4)c(F)c3)cc2[nH]1)[C@@H](C)OC`
Result: 0.023

---

Assay: Protein binding in human plasma
Type: ADME, cell-free
Conditions: read-out: PPB (converted)
RECORDED_METRIC: fraction unbound
// return just the number, without any unit appended

Request: Name the reported fraction unbound value associated with the compound `CC(C)(C)[C@@H]1NC(=O)O[C@@H]2CCC[C@H]2OC/C=C/C(F)(F)c2nc3ccccc3nc2O[C@@H]2C[C@@H](C(=O)N[C@]3(C(=O)NS(=O)(=O)C4(C)CC4)C[C@H]3C(F)F)N(C2)C1=O`
Result: 0.025

Values from ChEMBL document CHEMBL4725393
